assay-target: Protein cereblon/Eukaryotic peptide chain release factor GTP-binding subunit ERF3A (Homo sapiens, UniProt Q96SW2+P15170)
Sequence (P15170 whole entry, looked up, one chain of several): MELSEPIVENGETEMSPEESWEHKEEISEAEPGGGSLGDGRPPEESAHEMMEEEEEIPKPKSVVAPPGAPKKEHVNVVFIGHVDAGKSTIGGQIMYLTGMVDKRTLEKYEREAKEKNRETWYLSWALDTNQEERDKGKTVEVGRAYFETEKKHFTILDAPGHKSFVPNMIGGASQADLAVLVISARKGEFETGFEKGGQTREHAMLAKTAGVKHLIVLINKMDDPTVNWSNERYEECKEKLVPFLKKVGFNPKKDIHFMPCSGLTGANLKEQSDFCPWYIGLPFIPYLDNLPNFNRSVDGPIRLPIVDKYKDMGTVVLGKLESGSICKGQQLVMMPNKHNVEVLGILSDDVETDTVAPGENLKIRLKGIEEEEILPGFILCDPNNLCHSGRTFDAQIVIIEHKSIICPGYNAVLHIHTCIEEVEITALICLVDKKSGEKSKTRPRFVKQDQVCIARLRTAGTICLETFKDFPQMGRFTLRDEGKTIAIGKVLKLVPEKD
assay-name: Molecular glue activity at CRBN/GSPT1 in human 22Rv1 cells assessed as induction of GSPT1 degradation at 0.01 uM incubated for 24 hrs by Western blot analysis relative to control
Assay type: cell-based
The entries below are paired with their reported Activity.
observable: Activity (%)

1) CC(C)(c1ccc(OCC2CCN(S(C)(=O)=O)CC2)cc1)c1cc(Cl)c(OCC2CCN(C(=O)CCCCCNc3ccc4c(c3)C(=O)N(C3CCC(=O)NC3=O)C4=O)CC2)c(C#N)c1 (stereo not drawn)    95.6
2) CC(C)(c1ccc(OCC2CN(S(C)(=O)=O)C2)cc1)c1cc(Cl)c(OCC2CCN(C(=O)CCCCCNc3ccc4c(c3)C(=O)N(C3CCC(=O)NC3=O)C4=O)CC2)c(C#N)c1 (stereo not drawn)    93.2
3) COc1ccc(C(C)(C)c2cc(Cl)c(OCC3CCN(C(=O)CCCCCNc4ccc5c(c4)C(=O)N(C4CCC(=O)NC4=O)C5=O)CC3)c(C#N)c2)cc1 (stereo not drawn)    93.9

====

assay-target: Protein cereblon/Eukaryotic peptide chain release factor GTP-binding subunit ERF3A (Homo sapiens, UniProt Q96SW2+P15170)
assay-name: Molecular glue activity at CRBN/GSPT1 in human 22Rv1 cells assessed as induction of GSPT1 degradation at 5 uM incubated for 24 hrs by Western blot analysis relative to control
Type: cell-based
The entries below are paired with their reported Activity.
observable: Activity (%)

1) CC(C)(c1ccc(OCC2CCN(C(=O)CCCCNc3ccc4c(c3)C(=O)N(C3CCC(=O)NC3=O)C4=O)CC2)cc1)c1ccc(OC[C@H](O)CCl)cc1 (stereo partly specified)    89.3
2) CC(C)(c1ccc(OCC2CCN(C(=O)CCCC#Cc3ccc4c(c3)C(=O)N(C3CCC(=O)NC3=O)C4=O)CC2)cc1)c1ccc(OC[C@H](O)CCl)cc1 (stereo partly specified)    34
3) CC(C)(c1ccc(OCC2CCN(C(=O)CCCCC#Cc3ccc4c(c3)C(=O)N(C3CCC(=O)NC3=O)C4=O)CC2)cc1)c1ccc(OC[C@H](O)CCl)cc1 (stereo partly specified)    30.7
4) CC(C)(c1ccc(OCC2CCN(C(=O)CCCCCCNc3cccc4c3C(=O)N(C3CCC(=O)NC3=O)C4=O)CC2)cc1)c1ccc(OC[C@H](O)CCl)cc1 (stereo partly specified)    39.8
5) CC(C)(c1ccc(OCC2CCN(C3CN(C(=O)CCNc4ccc5c(c4)C(=O)N(C4CCC(=O)NC4=O)C5=O)C3)CC2)cc1)c1ccc(OC[C@H](O)CCl)cc1 (stereo partly specified)    15.5
6) CC(C)(c1ccc(OCC2CCN(C(=O)CCCCCOc3ccc4c(c3)C(=O)N(C3CCC(=O)NC3=O)C4=O)CC2)cc1)c1ccc(OC[C@H](O)CCl)cc1 (stereo partly specified)    95.5

====

Test system: Protein cereblon/Androgen receptor (Homo sapiens), P10275+Q96SW2 [UNDEFINED MUTATION]
Sequence (P10275 whole entry, looked up, change not shown, canonical isoform): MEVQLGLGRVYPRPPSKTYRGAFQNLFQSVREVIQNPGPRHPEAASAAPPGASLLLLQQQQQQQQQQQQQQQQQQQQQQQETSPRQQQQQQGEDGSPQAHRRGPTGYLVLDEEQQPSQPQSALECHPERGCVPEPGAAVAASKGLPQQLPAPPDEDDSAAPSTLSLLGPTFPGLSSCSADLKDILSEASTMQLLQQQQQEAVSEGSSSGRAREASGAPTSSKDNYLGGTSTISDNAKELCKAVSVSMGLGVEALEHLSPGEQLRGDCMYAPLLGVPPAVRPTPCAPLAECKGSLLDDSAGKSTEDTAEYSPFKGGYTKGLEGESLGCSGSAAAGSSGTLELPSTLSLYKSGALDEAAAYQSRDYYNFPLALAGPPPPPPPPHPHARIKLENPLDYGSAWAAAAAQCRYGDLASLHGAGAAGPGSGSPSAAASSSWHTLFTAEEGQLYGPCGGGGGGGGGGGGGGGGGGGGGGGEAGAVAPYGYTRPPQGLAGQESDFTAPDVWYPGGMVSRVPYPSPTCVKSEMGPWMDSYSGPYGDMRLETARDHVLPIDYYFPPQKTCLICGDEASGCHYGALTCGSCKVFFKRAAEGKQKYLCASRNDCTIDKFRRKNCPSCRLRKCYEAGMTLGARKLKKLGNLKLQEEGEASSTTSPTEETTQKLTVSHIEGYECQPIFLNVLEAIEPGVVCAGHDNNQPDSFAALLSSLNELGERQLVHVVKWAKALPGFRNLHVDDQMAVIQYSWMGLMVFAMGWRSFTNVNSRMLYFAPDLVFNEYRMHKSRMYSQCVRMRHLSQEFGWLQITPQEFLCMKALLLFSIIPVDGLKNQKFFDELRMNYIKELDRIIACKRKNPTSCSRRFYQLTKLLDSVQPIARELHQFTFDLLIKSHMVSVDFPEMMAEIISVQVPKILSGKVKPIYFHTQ
Sequence (Q96SW2 whole entry, looked up, change not shown, canonical isoform): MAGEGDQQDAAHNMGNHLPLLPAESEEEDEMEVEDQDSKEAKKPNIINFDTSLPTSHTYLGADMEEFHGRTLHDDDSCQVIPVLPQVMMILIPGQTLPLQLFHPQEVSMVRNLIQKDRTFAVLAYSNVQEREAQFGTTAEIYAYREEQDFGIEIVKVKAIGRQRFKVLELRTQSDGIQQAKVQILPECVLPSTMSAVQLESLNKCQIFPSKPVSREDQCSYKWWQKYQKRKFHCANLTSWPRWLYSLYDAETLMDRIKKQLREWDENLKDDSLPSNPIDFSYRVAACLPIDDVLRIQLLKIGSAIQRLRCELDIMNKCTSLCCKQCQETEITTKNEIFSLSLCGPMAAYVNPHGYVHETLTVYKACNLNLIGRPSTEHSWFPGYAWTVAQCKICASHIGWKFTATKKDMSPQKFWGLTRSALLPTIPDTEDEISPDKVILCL
assay-name: PROTAC activity at CRBN/Androgen receptor splice variant 7 in human VCaP cells assessed as induction of AR-V7 degradation at 0.1 uM incubated for 24 hrs by Western blot analysis relative to control
Assay type: cell-based
observable: Activity (%)

1) CC(C)(c1ccc(OCCCCl)cc1)c1ccc(OCC2CCN(C(=O)CCCCCNc3ccc4c(c3)C(=O)N(C3CCC(=O)NC3=O)C4=O)CC2)cc1 (stereo unspecified)    28.6
2) CC(C)(c1ccc(OCc2ccccc2)cc1)c1cc(Cl)c(OCC2CCN(C(=O)CCCCCNc3ccc4c(c3)C(=O)N(C3CCC(=O)NC3=O)C4=O)CC2)c(C#N)c1 (stereo unspecified)    21.1
3) COc1ccc(C(C)(C)c2cc(Cl)c(OCC3CCN(C(=O)CCCCCNc4cc5c(cc4F)C(=O)N(C4CCC(=O)NC4=O)C5=O)CC3)c(C#N)c2)cc1 (stereo unspecified)    10
4) COc1ccc(C(C)(C)c2ccc(OCC3CCN(C(=O)CCCCCNc4ccc5c(c4)C(=O)N(C4CCC(=O)NC4=O)C5=O)CC3)cc2)cc1 (stereo unspecified)    54.5
5) CC(C)(c1ccc(OCc2cncnc2)cc1)c1cc(Cl)c(OCC2CCN(C(=O)CCCCCNc3ccc4c(c3)C(=O)N(C3CCC(=O)NC3=O)C4=O)CC2)c(C#N)c1 (stereo unspecified)    94
